Biological target: Amyloid-beta precursor protein (Homo sapiens) (UniProt P05067)
Sequence (P05067 whole entry): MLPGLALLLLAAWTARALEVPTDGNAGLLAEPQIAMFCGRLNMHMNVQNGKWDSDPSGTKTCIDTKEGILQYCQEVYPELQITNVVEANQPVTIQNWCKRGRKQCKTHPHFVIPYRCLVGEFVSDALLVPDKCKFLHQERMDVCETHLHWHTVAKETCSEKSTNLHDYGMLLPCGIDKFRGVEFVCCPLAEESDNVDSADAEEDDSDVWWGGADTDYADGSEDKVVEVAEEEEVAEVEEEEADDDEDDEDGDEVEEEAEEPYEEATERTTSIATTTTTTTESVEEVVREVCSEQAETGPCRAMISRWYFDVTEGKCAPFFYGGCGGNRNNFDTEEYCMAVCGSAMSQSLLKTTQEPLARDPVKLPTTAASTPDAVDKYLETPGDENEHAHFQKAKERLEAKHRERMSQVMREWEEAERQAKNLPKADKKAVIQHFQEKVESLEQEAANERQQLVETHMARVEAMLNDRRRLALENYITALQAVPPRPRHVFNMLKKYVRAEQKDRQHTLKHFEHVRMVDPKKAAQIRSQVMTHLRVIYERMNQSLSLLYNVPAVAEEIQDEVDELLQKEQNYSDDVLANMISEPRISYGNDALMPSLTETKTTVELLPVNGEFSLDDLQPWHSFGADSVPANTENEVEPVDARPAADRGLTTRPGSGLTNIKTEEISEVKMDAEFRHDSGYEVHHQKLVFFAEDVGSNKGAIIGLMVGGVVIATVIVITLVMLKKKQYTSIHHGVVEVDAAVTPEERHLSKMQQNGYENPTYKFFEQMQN
Assay: Inhibition of Amyloid beta (1 to 42) (unknown origin) self aggregation at 20 uM for 24 hrs by Thioflavin T-based fluorometric assay
READOUT NAME: inhibition
Give the value; after it, write the unit.

// query Can you look up the measured inhibition of COc1ccc(CN2C(=O)C[C@@H](c3ccc(C)cc3)[C@H]([N+](=O)[O-])[C@H]2c2ccc(O)cc2)cc1 (racemic) for me?
// result 30.6%

// query # iterate: COc1cc(OC)cc([C@@H]2CC(=O)N(Cc3ccc(OC)c(OC)c3)[C@H](c3ccc(O)cc3)[C@H]2[N+](=O)[O-])c1 (racemic)
// result 59.1%

// query # iterate: COc1cc(OC)cc([C@@H]2CC(=O)N(Cc3cccnc3)[C@H](c3ccc(O)cc3)[C@H]2[N+](=O)[O-])c1 (racemic)
// result 54%

// query # iterate: COc1cccc(CN2C(=O)C[C@@H](c3ccccc3Cl)[C@H]([N+](=O)[O-])[C@H]2c2ccc(O)cc2)c1 (racemic)
// result 50%

// query # iterate: COc1ccc(CN2C(=O)C[C@@H](c3ccccc3)[C@H]([N+](=O)[O-])[C@H]2c2ccc(O)cc2)cc1 (racemic)
// result 46.1%

// query # iterate: O=C1C[C@@H](c2ccccc2Cl)[C@H]([N+](=O)[O-])[C@@H](c2ccc(O)cc2)N1Cc1ccccc1 (racemic)
// result 11.2%

// query # iterate: COc1ccc(CN2C(=O)C[C@@H](c3ccccc3)[C@H]([N+](=O)[O-])[C@H]2c2ccc(O)cc2)cc1OC (racemic)
// result 49.2%

// query # iterate: Cc1ccc(CN2C(=O)C[C@@H](c3ccccc3Cl)[C@H]([N+](=O)[O-])[C@H]2c2ccc(O)cc2)cc1 (racemic)
// result 46.1%

// query # iterate: COc1cccc(CN2C(=O)C[C@@H](c3cc(OC)cc(OC)c3)[C@H]([N+](=O)[O-])[C@H]2c2ccc(O)cc2)c1 (racemic)
// result 56.9%

// query # iterate: Cc1ccc([C@@H]2CC(=O)N(Cc3ccccc3)[C@H](c3ccc(O)cc3)[C@H]2[N+](=O)[O-])cc1 (racemic)
// result 44.1%

// query # iterate: Cc1ccc(CN2C(=O)C[C@@H](c3ccc(C)cc3)[C@H]([N+](=O)[O-])[C@H]2c2ccc(O)cc2)cc1 (racemic)
// result 42.1%

// query # iterate: COc1cc([C@@H]2[C@@H]([N+](=O)[O-])[C@H](c3ccccc3Cl)CC(=O)N2Cc2ccccc2)ccc1O (racemic)
// result 11.8%
